# Assayed target: T1, Recombinant human Dkk-1 (R&D Systems cat no. 1096-DK/CF), 10xHis tag at the C terminal (human, UniProt O94907 32-266)
# T1 construct: the actual N-terminus of the purified protein is marked in bold italic after residue 30, but the mark is an image lost in the text; also called rhuDkk-1; hDkk-1
# T1 sequence: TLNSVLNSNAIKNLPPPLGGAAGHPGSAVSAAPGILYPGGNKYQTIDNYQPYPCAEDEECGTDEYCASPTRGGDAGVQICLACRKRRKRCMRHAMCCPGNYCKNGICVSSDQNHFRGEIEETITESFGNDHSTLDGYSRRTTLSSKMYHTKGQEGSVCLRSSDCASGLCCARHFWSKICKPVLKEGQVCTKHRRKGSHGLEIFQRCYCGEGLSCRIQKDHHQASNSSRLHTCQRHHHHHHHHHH
# Measurement notes: SPR screening 37C (BIAcore/ProteOn), Fab lysate over biotinylated human Dkk-1
# Protocol: For screening assays to determine binding and dissociation rates of huMabJC18 variants to human Dkk1, either BIAcore or ProteOn XPR36 (BioRad, Inc.) systems were used. […] For the ProteOn assay, biotinylated human Dkk-1 was injected for 1 min at serial fold dilutions empirically determined to yield different levels of immobilization (150-3000 RU) on five channels of a ProteOn NLC Neutravidin sensor chip. […] Fab dissociation from the Dkk-1 surface was monitored for 20 min. […]
Value type: koff (s⁻¹)
# unit: s⁻¹ | format: bare number

Completed entries (count: 4):
>>> obs_value("L2.P4.E7 (Fab, V domains shown, tested as Fab (E. coli lysate, screening mode); human kappa CL and IgG2 CH1 not included here) VH: EVQLVESGGGLVQPGGSLRLSCAASGFTFSSYAISWVRQAPGKGLEWVASVSGWGDTYYPDSVKGRFTISRDNAKNSLYLQMNSLRAEDTAVYYCATSLRNYAFDYWGQGTTVTVSS VL: EIVLTQSPATLSLSPGERATLSCRASESVDDFGISFMNWYQQKPGQAPRLLIYAASKQGSGIPARFSGSGSGTDFTLTISSLEPEDFAVYYCQQSKEVPPTFGGGTKVEIK")
0.00519
>>> obs_value("2G9.33L (Fab, V domains shown, tested as Fab (E. coli lysate, screening mode); human kappa CL and IgG2 CH1 not included here) VH: EVQLVESGGGLVQPGGSLRLSCAASGFTFSSYAISWVRQAPGKGLEWVASVSGWGDTYYPDSVKGRFTISRDNAKNSLYLQMNSLRAEDTAVYYCATSLRNYAFDYWGQGTTVTVSS VL: EIVLTQSPATLSLSPGERATLSCRASESVDDFGISFINWYQQKPGQAPRLLIYAGSKQGSGIPARFSGSGSGTDFTLTISSLEPEDFAVYYCQQLKEVPPTFGGGTKVEIK")
0.000283
>>> obs_value("SL3.4C7 (Fab, V domains shown, tested as Fab (E. coli lysate, screening mode); human kappa CL and IgG2 CH1 not included here) VH: EVQLVESGGGLVQPGGSLRLSCAASGFTFSSYAISWVRQAPGKGLEWVASVSGGGRTYYPDSVKGRFTISRDNAKNSLYLQMNSLRAEDTAVYYCATSLENYAFDYWGQGTTVTVSS VL: EIVLTQSPATLSLSPGERATLSCRASESVDDFGISFMNWYQQKPGQAPRLLIYAASKQGSGIPARFSGSGSGTDFTLTISSLEPEDFAVYYCQHSKEVPPTFGGGTKVEIK")
0.0073
>>> obs_value("SL3.3B11 (Fab, V domains shown, tested as Fab (E. coli lysate, screening mode); human kappa CL and IgG2 CH1 not included here) VH: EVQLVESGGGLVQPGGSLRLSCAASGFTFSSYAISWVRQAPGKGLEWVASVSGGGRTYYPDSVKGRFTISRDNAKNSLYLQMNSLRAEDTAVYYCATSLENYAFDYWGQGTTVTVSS VL: EIVLTQSPATLSLSPGERATLSCRASESVDDFGISFMNWYQQKPGQAPRLLIYAASKQGSGIPARFSGSGSGTDFTLTISSLEPEDFAVYYCQQAKEVPPTFGGGTKVEIK")
0.012

Proceed to the following item.
Q) Report koff for 24m5 (Fab, V domains shown, tested as Fab (E. coli lysate, screening mode); human kappa CL and IgG2 CH1 not included here) VH: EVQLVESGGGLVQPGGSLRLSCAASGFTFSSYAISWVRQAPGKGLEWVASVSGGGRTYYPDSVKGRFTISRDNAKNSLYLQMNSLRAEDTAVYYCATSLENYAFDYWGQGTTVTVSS VL: EIVLTQSPATLSLSPGERATLSCRASESVDDFGISFMNWYQQKPGQAPRLLIYAGTKQGSGIPARFSGSGSGTDFTLTISSLEPEDFAVYYCQQSKEVPPTFGGGTKVEIK please.
A) 0.00874
